The origin of these recorded values is paper PMC5829162.

| molecule | melting point |
| --- | --- |
| CNc1cc(Nc2ccc(NC(=O)Nc3cc(C(C)(C)C)nn3C)cc2)ncn1 [24b] | 242 to 244 °C |
| CNc1cc(Nc2ccc(CC(=O)Nc3ccc(S(C)(=O)=O)cc3)cc2)ncn1 [13v] | 220 to 222 °C |
| O=C(Cc1ccc(Nc2cc(NCCCN3CCCC3)ncn2)cc1)Nc1ccc(OC(F)(F)F)cc1 [13t] | 212 to 214 °C |
| CS(=O)(=O)c1ccc(Nc2cc(Nc3ccc(CC(=O)Nc4cccc(C(F)(F)F)c4)cc3)ncn2)cc1 [13s] | 225 to 227 °C |
| CNc1cc(Oc2ccc(CC(=O)Nc3ccc(F)cc3)cc2)ncn1 [13ad] | 124 to 126 °C |
